Every entry's value here was drawn from patent EP4786492A1.

study-target: human DLL3 protein expressed on CHO-K1 recombinant cells (human DLL3 extracellular segment fused to EpCAM transmembrane and intracellular regions) (human) (UniProt Q9NYJ7)
Sequence (Q9NYJ7 other isoform, or with tags, fused parts or gaps limits assumed): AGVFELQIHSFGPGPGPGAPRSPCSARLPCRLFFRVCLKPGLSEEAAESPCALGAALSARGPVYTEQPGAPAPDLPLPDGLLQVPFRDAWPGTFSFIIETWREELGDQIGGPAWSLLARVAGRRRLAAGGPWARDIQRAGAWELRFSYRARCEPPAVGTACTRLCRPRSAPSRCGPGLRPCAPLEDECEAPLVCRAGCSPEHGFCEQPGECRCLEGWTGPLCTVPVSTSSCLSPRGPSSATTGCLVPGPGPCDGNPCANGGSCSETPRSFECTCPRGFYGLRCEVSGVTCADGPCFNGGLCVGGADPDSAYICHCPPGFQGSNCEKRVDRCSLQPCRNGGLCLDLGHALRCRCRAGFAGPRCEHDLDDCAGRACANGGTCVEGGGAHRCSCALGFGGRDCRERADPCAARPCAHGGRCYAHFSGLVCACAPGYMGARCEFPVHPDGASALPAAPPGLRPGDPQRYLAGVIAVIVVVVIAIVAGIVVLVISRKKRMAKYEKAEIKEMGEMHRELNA
protocol-details: FACS, CHO-K1 hDLL3 cells, 100 nM antibody
Documented MFI across a set of binders
Please reply with the bare figure in MFI and do not write the unit itself.

- binder: "Hab014VL2VH1-hFc (scFv, part only; not given: scFv linker and human IgG1 Fc, V domains shown, not shown: another chain or arm of the molecule; a dimerising Fc or GST; small tags and cut ends) VL: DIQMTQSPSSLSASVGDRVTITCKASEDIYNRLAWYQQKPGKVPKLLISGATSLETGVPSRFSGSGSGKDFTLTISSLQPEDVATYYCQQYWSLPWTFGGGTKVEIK VH: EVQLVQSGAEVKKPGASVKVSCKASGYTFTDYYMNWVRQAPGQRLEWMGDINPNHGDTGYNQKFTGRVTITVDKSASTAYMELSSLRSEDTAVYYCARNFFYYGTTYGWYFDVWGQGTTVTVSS"
  unit-info: "MFI"
  MFI: 16400
- binder: "Hab015VL4VH5a-hFc (scFv, part only; not given: VL-VH linker and human IgG1 Fc, V domains shown, not shown: another chain or arm of the molecule; a dimerising Fc or GST; small tags and cut ends) VL: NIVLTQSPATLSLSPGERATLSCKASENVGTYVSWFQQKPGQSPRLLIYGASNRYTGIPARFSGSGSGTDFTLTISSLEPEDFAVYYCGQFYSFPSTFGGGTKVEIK VH: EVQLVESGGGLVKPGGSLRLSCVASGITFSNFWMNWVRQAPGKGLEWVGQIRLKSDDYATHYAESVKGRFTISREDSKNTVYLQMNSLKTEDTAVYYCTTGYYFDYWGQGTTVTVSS"
  unit-info: "MFI"
  MFI: 12400
- binder: "Hab009VL1aVH1-hFc (scFv, part only; not given: scFv linker and human IgG1 Fc, V domains shown, not shown: another chain or arm of the molecule; a dimerising Fc or GST; small tags and cut ends) VL: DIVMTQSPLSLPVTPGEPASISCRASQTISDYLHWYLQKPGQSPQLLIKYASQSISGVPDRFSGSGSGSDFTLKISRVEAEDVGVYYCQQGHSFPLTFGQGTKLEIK VH: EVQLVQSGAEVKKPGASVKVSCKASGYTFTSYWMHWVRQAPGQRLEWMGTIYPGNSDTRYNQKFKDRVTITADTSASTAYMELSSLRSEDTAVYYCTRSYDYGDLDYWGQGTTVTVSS"
  unit-info: "MFI"
  MFI: 12900
- binder: "Hab008L1H5-hFc (scFv, part only; not given: VL-VH linker and human IgG1 Fc, V domains shown, not shown: another chain or arm of the molecule; a dimerising Fc or GST; small tags and cut ends) VL: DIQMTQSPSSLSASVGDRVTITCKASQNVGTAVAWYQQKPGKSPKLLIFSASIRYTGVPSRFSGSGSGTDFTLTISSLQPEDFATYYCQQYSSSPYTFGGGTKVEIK VH: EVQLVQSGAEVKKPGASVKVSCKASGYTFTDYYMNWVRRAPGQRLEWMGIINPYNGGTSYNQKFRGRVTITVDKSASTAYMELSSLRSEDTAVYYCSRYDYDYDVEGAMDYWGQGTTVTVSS"
  unit-info: "MFI"
  MFI: 8400
- binder: "Hab006VL4VH2-hFc (scFv, part only; not given: scFv linker and human IgG1 Fc, V domains shown, not shown: another chain or arm of the molecule; a dimerising Fc or GST; small tags and cut ends) VL: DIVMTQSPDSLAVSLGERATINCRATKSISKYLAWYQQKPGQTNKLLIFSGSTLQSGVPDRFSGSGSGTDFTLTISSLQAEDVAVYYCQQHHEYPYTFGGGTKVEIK VH: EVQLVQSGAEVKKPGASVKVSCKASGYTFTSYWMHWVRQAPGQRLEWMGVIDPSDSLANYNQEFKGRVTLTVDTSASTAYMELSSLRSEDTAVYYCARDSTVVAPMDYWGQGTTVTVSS"
  unit-info: "MFI"
  MFI: 15400

MFI in this record for Hab015VL4VH1a-hFc (scFv, part only; not given: scFv linker and human IgG1 Fc, V domains shown, not shown: another chain or arm of the molecule; a dimerising Fc or GST; small tags and cut ends) VL: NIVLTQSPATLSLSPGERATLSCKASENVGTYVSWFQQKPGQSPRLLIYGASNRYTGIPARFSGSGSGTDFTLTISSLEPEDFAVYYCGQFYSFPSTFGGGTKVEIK VH: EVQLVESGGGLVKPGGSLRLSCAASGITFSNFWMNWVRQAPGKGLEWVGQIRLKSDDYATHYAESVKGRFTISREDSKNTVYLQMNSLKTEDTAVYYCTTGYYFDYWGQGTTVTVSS : 11400

Summary for this binder, Hab014VL1VH2-hFc (scFv, part only; not given: VL-VH linker and human IgG1 Fc, V domains shown, not shown: another chain or arm of the molecule; a dimerising Fc or GST; small tags and cut ends) VL: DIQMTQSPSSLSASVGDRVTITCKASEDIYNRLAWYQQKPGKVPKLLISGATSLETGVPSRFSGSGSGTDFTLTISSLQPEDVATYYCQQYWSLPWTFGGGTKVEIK VH: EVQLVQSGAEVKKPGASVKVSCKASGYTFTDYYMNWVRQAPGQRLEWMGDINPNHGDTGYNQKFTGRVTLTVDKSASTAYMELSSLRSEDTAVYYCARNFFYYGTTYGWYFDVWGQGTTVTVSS : MFI is 16000

Value of MFI reported for the binder Hab006VL4VH1-hFc (scFv, part only; not given: scFv linker and human IgG1 Fc, V domains shown, not shown: another chain or arm of the molecule; a dimerising Fc or GST; small tags and cut ends) VL: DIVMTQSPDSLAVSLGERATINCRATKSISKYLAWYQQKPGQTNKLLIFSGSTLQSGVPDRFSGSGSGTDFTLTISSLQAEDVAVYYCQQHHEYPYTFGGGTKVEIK VH: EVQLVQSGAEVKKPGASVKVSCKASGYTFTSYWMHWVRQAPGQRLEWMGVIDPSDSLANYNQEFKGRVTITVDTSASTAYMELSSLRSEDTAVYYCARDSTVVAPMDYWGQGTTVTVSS is 15200

Notebook: Hab009VL3aVH1-hFc (Fc fusion, part only; not given: Linker and human IgG1 Fc, not shown: a dimerising Fc or GST) chain, part: DIVMTQSPLSLPVTPGEPASISCRASQTISDYLHWYLQKSHQSPQLLIKYASQSISGVPDRFSGSGSGTDFTLKISRVEAEDVGVYYCQQGHSFPLTFGQGTKLEIKEVQLVQSGAEVKKPGASVKVSCKASGYTFTSYWMHWVRQAPGQRLEWMGTIYPGNSDTRYNQKFKDRVTITADTSASTAYMELSSLRSEDTAVYYCTRSYDYGDLDYWGQGTTVTVSS , MFI read as 13400

Summary for this binder, Hab015VL5VH1b-hFc (scFv, part only; not given: VL-VH linker and human IgG1 Fc, V domains shown, not shown: another chain or arm of the molecule; a dimerising Fc or GST; small tags and cut ends) VL: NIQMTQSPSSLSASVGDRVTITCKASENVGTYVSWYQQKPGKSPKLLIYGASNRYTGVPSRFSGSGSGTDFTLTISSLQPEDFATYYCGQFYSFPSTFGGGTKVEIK VH: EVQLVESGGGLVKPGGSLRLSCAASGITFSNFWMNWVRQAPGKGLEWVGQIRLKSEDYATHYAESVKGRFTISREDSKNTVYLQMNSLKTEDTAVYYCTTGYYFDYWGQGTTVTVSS : MFI is 11800
